- Test system: Gram positive anaerobic and facultative anaerobic pathogens
- EXPERIMENT DESCRIPTION: microbe, parasite or virus in culture
- Format: cell-based
- DETAILS: Clostridium perfringens, ATCC13124
Listed here are molecules together with their documented MIC.

Recorded results for 3 molecules are shown here.
>>> obs_value("C[C@@H]1CN(c2c(F)c(N)c3c(=O)c(C(=O)O)cn(C4CC4)c3c2F)C[C@H](C)N1 [Sparfloxacin, sparfloxacin]")
"0.125 µg/mL"
>>> obs_value("CO/N=C1\\CN(c2nc3c(cc2F)c(=O)c(C(=O)O)cn3C2CC2)CC1CN (racemic) [Gemifloxacin]")
"0.06 µg/mL"
>>> obs_value("C[C@@H](O)[C@H]1C(=O)N2C(C(=O)O)=C(SCCN=CN)C[C@H]12 [Imipenem]")
"0.125 µg/mL"

From here, focus on the item given below.
Query: Give me measured MIC, please, for this molecule: N[C@@H]1[C@H]2CN(c3nc4c(cc3F)c(=O)c(C(=O)O)cn4-c3ccc(F)cc3F)C[C@@H]12 [Trovafloxacin, trovafloxacin]
Response: 0.125 µg/mL

----------
- System: Salmonella spp.
- EXPERIMENT DESCRIPTION: MIC by NCCLS broth microdilution, 1100 Japanese clinical isolates 1997-1998
- Format: cell-based
- DETAILS: Salmonella spp. (n=29)
EXPERIMENTAL ENDPOINT: MIC50 (µg/mL)
Hi! Could you send only the number? It should be in µg/mL, unit omitted.

Record excerpt, results attached:
>>> obs_value("CO/N=C1\\CN(c2nc3c(cc2F)c(=O)c(C(=O)O)cn3C2CC2)CC1CN (racemic)")
0.032
>>> obs_value("C[C@H]1COc2c(N3CCN(C)CC3)c(F)cc3c(=O)c(C(=O)O)cn1c23")
0.063
>>> obs_value("N[C@@H]1[C@H]2CN(c3nc4c(cc3F)c(=O)c(C(=O)O)cn4-c3ccc(F)cc3F)C[C@@H]12")
0.032
>>> obs_value("C[C@@H]1CN(c2c(F)c(N)c3c(=O)c(C(=O)O)cn(C4CC4)c3c2F)C[C@H](C)N1")
0.032

Field: next molecule
Query: # return recorded MIC50 for input NC1CCN(c2nc3c(cc2F)c(=O)c(C(=O)O)cn3-c2ccc(F)cc2F)C1 (centres unmarked)
Response: 0.032

----------
Entries annotated with measured MIC50
- Test system: Moraxella catarrhalis
- EXPERIMENT DESCRIPTION: MIC by NCCLS reference broth microdilution, 450 respiratory tract pathogens
- Type: cell-based
- DETAILS: β-lactamase positive (n = 37)

>>> obs_value("C[C@H]1COc2c(N3CCN(C)CC3)c(F)cc3c(=O)c(C(=O)O)cn1c23")
"0.015 µg/mL"
>>> obs_value("C[C@@H]1CN(c2c(F)c(N)c3c(=O)c(C(=O)O)cn(C4CC4)c3c2F)C[C@H](C)N1")
"0.015 µg/mL"
>>> obs_value("CO/N=C1\\CN(c2nc3c(cc2F)c(=O)c(C(=O)O)cn3C2CC2)CC1CN (racemic)")
"0.015 µg/mL"
>>> obs_value("NC1CCN(c2c(F)cc3c(=O)c(C(=O)O)cn(C4CC4)c3c2Cl)C1 (centres unmarked)")
"≤ 0.00375 µg/mL"
>>> obs_value("CO/N=C(\\C(=O)N[C@@H]1C(=O)N2C(C(=O)O)=C(COC(N)=O)CS[C@H]12)c1ccco1")
"0.25 µg/mL"

Query: Give the reported value of MIC50 for this record: `O=C(O)c1cn(C2CC2)c2cc(N3CCNCC3)c(F)cc2c1=O`
Response: 0.03 µg/mL

Query: Tell me measured MIC50 for `N[C@@H]1[C@H]2CN(c3nc4c(cc3F)c(=O)c(C(=O)O)cn4-c3ccc(F)cc3F)C[C@@H]12` please.
Response: 0.015 µg/mL

Query: Read the entry `COc1c(N2C[C@@H]3CCCN[C@@H]3C2)c(F)cc2c(=O)c(C(=O)O)cn(C3CC3)c12` and write its reported MIC50.
Response: 0.03 µg/mL
